The following molecules are shown together with reported caspase 30 μM values.
test system: Caspase 3; assay: Caspase 3 detection assay in SJSA1 cells; assay type: cell-based; details: 30 μM, SJSA1, 48 h, Caspase 3 activation over DMSO-treated cells
Bridge positions count the residues as written; N and C are the ends. Square brackets hold non-standard residues; d marks the D form. Peptide text beside a SMILES is read from it. Phe(3,4-F2) = N[C@@H](Cc1ccc(F)c(F)c1)C(=O)O; R8 = C=CCCCCCC[C@@](C)(N)C(=O)O; Cba = N[C@@H](CC1CCC1)C(=O)O; S5 = C=CCCC[C@](C)(N)C(=O)O; Nle = CCCC[C@H](N)C(=O)O

molecule: CC(=O)N[C@@H](C)C(=O)N[C@@H](C)C(=O)N[C@@H](CC(C)C)C(=O)N[C@H](C(=O)N[C@@H](Cc1ccccc1)C(=O)N[C@]1(C)CCCCCCC=CCCC[C@@](C)(C(=O)N[C@@H](CO)C(=O)N[C@@H](C)C(=O)N[C@@H](C)C(=O)N[C@@H](C)C(=O)N[C@H](C)C(N)=O)NC(=O)[C@H](CC2CCC2)NC(=O)[C@H](CCC(N)=O)NC(=O)[C@H](C)NC(=O)[C@H](Cc2c[nH]c3ccccc23)NC(=O)[C@H](Cc2ccc(O)cc2)NC(=O)[C@H](CCC(=O)O)NC1=O)[C@@H](C)O (single isomer, unassigned) [compound 359]
caspase 30 μM: 23

molecule: CCCC[C@H](NC(=O)[C@H](C)NC(=O)[C@H](CO)NC(=O)[C@]1(C)CCCC=CCCCCCC[C@@](C)(NC(=O)[C@H](Cc2ccc(F)c(F)c2)NC(=O)[C@@H](NC(=O)[C@H](CC(C)C)NC(C)=O)[C@@H](C)O)C(=O)N[C@@H](CCC(=O)O)C(=O)N[C@@H](Cc2ccc(O)cc2)C(=O)N[C@@H](Cc2c[nH]c3ccccc23)C(=O)N[C@@H](C)C(=O)N[C@@H](CCC(N)=O)C(=O)N[C@@H](CC2CCC2)C(=O)N1)C(=O)N[C@@H](C)C(N)=O [compound 243] (Ac-LT[Phe(3,4-F2)][R8]EYWAQ[Cba][S5]SA[Nle]A-NH2; staple 4-11)
caspase 30 μM: 23

molecule: CC(=O)N[C@@H](CC(C)C)C(=O)N[C@H](C(=O)N[C@@H](Cc1ccccc1)C(=O)N[C@]1(C)CCCCCCC=CCCC[C@@](C)(C(=O)N[C@@H](CO)C(=O)N[C@@H](C)C(=O)N[C@@H](C)C(N)=O)NC(=O)[C@H](CC2CCC2)NC(=O)[C@H](CCC(N)=O)NC(=O)[C@H](C)NC(=O)[C@H](Cc2c[nH]c3ccccc23)NC(=O)[C@H](Cc2ccc(O)cc2)NC(=O)[C@H](CCC(=O)O)NC1=O)[C@@H](C)O (single isomer, unassigned) [compound 153]
caspase 30 μM: 20

molecule: CCCC[C@H](NC(=O)[C@H](C)NC(=O)[C@H](C)NC(=O)[C@]1(C)CCC/C=C/CCCCCC[C@@](C)(NC(=O)[C@H](Cc2ccccc2)NC(=O)[C@@H](NC(=O)[C@H](CC(C)C)NC(C)=O)[C@@H](C)O)C(=O)N[C@@H](C)C(=O)N[C@@H](Cc2ccc(O)cc2)C(=O)N[C@@H](Cc2c[nH]c3ccccc23)C(=O)N[C@@H](C)C(=O)N[C@@H](CCC(N)=O)C(=O)N[C@@H](CC(C)C)C(=O)N1)C(=O)N[C@@H](C)C(N)=O [compound 69]
caspase 30 μM: 26.11

molecule: CC[C@H](C)[C@H](NC(=O)[C@H](C)NC(=O)[C@H](C)NC(=O)[C@]1(C)CCCC=CCCCCCC[C@@](C)(NC(=O)[C@H](Cc2ccccc2)NC(=O)[C@@H](NC(=O)[C@H](CCC(=O)O)NC(C)=O)[C@@H](C)O)C(=O)N[C@@H](CCC(=O)O)C(=O)N[C@@H](Cc2c[nH]cn2)C(=O)N[C@@H](Cc2c[nH]c3ccccc23)C(=O)N[C@@H](C)C(=O)N[C@@H](CCC(N)=O)C(=O)N[C@@H](CC(C)C)C(=O)N1)C(=O)N[C@H](C)C(N)=O (single isomer, unassigned) [compound 175]
caspase 30 μM: 21

molecule: CC(=O)N[C@@H](CC(C)C)C(=O)N[C@H](C(=O)N[C@@H](Cc1ccccc1)C(=O)N[C@]1(C)CCCCCC/C=C/CCC[C@@](C)(C(=O)N[C@@H](C)C(=O)N[C@@H](C)C(=O)N[C@@H](C)C(=O)N[C@@H](C)C(=O)N[C@@H](C)C(=O)N[C@H](C)C(N)=O)NC(=O)[C@H](CC2CCC2)NC(=O)[C@H](CCC(N)=O)NC(=O)[C@H](C)NC(=O)[C@H](Cc2c[nH]c3ccccc23)NC(=O)[C@H](Cc2ccc(C(=O)O)cc2)NC(=O)[C@H](CCC(=O)O)NC1=O)[C@@H](C)O [compound 349]
caspase 30 μM: 24

molecule: CC(=O)N[C@@H](CC(C)C)C(=O)N[C@H](C(=O)N[C@@H](Cc1ccccc1)C(=O)N[C@]1(C)CCCCCCC=CCCC[C@@](C)(C(=O)N[C@@H](C)C(=O)N[C@@H](C)C(=O)N[C@@H](C)C(=O)N[C@@H](C)C(=O)N[C@@H](C)C(=O)N[C@@H](C)C(=O)N[C@H](C)C(N)=O)NC(=O)[C@H](CC(C)C)NC(=O)[C@H](CCC(N)=O)NC(=O)[C@H](C)NC(=O)[C@H](Cc2c[nH]c3ccccc23)NC(=O)[C@H](Cc2ccc(O)cc2)NC(=O)[C@H](C)NC1=O)[C@@H](C)O (single isomer, unassigned) [compound 316]
caspase 30 μM: 32.5

molecule: CC(=O)N[C@@H](CC(C)C)C(=O)N[C@H](C(=O)N[C@@H](Cc1ccccc1)C(=O)N[C@]1(C)CCCCCCC=CCCC[C@@](C)(C(=O)N[C@@H](C)C(=O)N[C@H](C(=O)NCC(N)=O)C(C)C)NC(=O)[C@H](CC(C)C)NC(=O)[C@H](CCC(N)=O)NC(=O)[C@H](C)NC(=O)[C@H](Cc2c[nH]c3ccccc23)NC(=O)[C@H](Cc2ccc(O)cc2)NC(=O)[C@H](C)NC1=O)[C@@H](C)O (single isomer, unassigned) [compound 109]
caspase 30 μM: 25

The measured values listed here are drawn from patent US20200369728A1.
